# assay.method.text: Plasma concentration in Sprague-Dawley rat at 15 mg/kg, po qd measured at 20 hrs post dose
# Type: ADME, organism-based
readout: concentration at 20 h

Entry "COc1cc(-n2cnc3cc(-c4ccc(Cl)cc4)sc3c2=O)ccc1OCCN1CCCC1" has what concentration at 20 h?
378 nM

---

# tested.on: Melanin-concentrating hormone receptor 1 (Rattus norvegicus)
# Sequence (P97639 whole entry): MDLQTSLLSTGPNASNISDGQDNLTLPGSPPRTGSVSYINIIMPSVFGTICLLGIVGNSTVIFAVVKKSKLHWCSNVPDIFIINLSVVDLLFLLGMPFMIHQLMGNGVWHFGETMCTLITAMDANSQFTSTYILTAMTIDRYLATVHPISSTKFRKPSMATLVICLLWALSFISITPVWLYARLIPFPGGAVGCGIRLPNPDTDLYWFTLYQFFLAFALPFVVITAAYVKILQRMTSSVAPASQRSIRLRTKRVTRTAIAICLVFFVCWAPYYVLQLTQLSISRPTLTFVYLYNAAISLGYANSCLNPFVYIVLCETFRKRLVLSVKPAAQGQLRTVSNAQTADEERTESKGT
# assay.method.text: Antagonist activity at rat MCHR1 assessed as 6-(4-chlorophenyl)-3-(4-(2-hydroxy-2-methylpropoxy)-3-methoxyphenyl)thieno[3,2-d]pyrimidin-4(3H)-one
readout: pKi
Formally, pKi is defined as -log10 of the concentration c, with c in mol/L.

# value lookup — system Melanin-concentrating hormone receptor 1 (Rattus norvegicus), readout pKi, item "COc1cc(-n2cnc3cc(-c4ccc(Cl)cc4)sc3c2=O)ccc1OCC(C)(C)OC(=O)CN"
8.14
